Tested on: KRAS-mutant PDC tumor spheroid with HUVEC/MSC, viability
Assay: Anticancer human tumor 327498-153-R-J2-PDC patient-derived uterine carcinosarcoma cell line growth inhibition [KRAS2]
Conditions: second compound 1 µM; first compound 1 µM; stronger effect = lower value
Reported viability, T/C values for a set of molecules
ASSAY_READOUT: viability, T/C

[
  {
    "MOLECULE": "O=C(c1cc(Cc2n[nH]c(=O)c3ccccc23)ccc1F)N1CCN(C(=O)C2CC2)CC1 + CC1OCC2(CCN(c3cnc(Sc4ccnc(N)c4Cl)c(N)n3)CC2)C1N",
    "OBSERVED": "40.9%"
  },
  {
    "MOLECULE": "COc1cc(Nc2ncc3c(n2)-c2ccc(Cl)cc2C(c2c(F)cccc2OC)=NC3)ccc1C(=O)O + C=CC(=O)N1CCN(c2nc(=O)n(-c3c(C)ccnc3C(C)C)c3nc(-c4c(O)cccc4F)c(F)cc23)C(C)C1",
    "OBSERVED": "10.7%"
  },
  {
    "MOLECULE": "CC1COCCN1c1cc(-c2ccnn2C)c2ccnc(-c3ccn[nH]3)c2n1 (stereo not given) + COc1cc2nc(C)nc(NC(C)c3cc(N)cc(C(F)(F)F)c3)c2cc1OC1CCOC1",
    "OBSERVED": "7.04%"
  },
  {
    "MOLECULE": "O=C(c1cc(Cc2n[nH]c(=O)c3ccccc23)ccc1F)N1CCN(C(=O)C2CC2)CC1 + COc1cc2nc(C)nc(NC(C)c3cc(N)cc(C(F)(F)F)c3)c2cc1OC1CCOC1",
    "OBSERVED": "94.6%"
  },
  {
    "MOLECULE": "COC(=O)c1ccc2c(C(=Nc3ccc(N(C)C(=O)CN4CCN(C)CC4)cc3)c3ccccc3)c(O)[nH]c2c1 + C=CC(=O)N1CCN(c2nc(=O)n(-c3c(C)ccnc3C(C)C)c3nc(-c4c(O)cccc4F)c(F)cc23)C(C)C1",
    "OBSERVED": "16.6%"
  }
]

---

Test system: KRAS-mutant PDC tumor spheroid with HUVEC/MSC, viability
Experiment: Anticancer human tumor 327498-153-R-J2-PDC cell line growth inhibition [KRAS2];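 note: spheroids exposed to agents for seven days before reading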
Conditions: curve of first compound; second compound 3.16 µM
pIC50: −log10 of the molar value.

[
  {
    "MOLECULE": "COc1cc(Nc2ncc3c(n2)-c2ccc(Cl)cc2C(c2c(F)cccc2OC)=NC3)ccc1C(=O)O + COc1cc2nc(C)nc(NC(C)c3cc(N)cc(C(F)(F)F)c3)c2cc1OC1CCOC1",
    "TARGET_ENTITY": "KRAS-mutant PDC tumor spheroid with HUVEC/MSC, viability",
    "pIC50": "> 7.50"
  },
  {
    "MOLECULE": "CCNC(=O)CC1N=C(c2ccc(Cl)cc2)c2cc(OC)ccc2-n2c(C)nnc21 (stereo not drawn) + CC1OCC2(CCN(c3cnc(Sc4ccnc(N)c4Cl)c(N)n3)CC2)C1N",
    "TARGET_ENTITY": "KRAS-mutant PDC tumor spheroid with HUVEC/MSC, viability",
    "pIC50": "> 7.50"
  },
  {
    "MOLECULE": "CC1OCC2(CCN(c3cnc(Sc4ccnc(N)c4Cl)c(N)n3)CC2)C1N (stereo not drawn) + COc1cc2nc(C)nc(NC(C)c3cc(N)cc(C(F)(F)F)c3)c2cc1OC1CCOC1",
    "TARGET_ENTITY": "KRAS-mutant PDC tumor spheroid with HUVEC/MSC, viability",
    "pIC50": 7.19
  }
]

---

Reported viability, T/C values for a set of compounds
Test system: KRAS-mutant PDC tumor spheroid with HUVEC/MSC, viability
Test: Anticancer human tumor 327498-153-R-J2-PDC cell line growth inhibition [KRAS2];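 note: spheroids exposed to agents for seven days before reading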;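 for viability, T/C: 100% = DMSO vehicle wells so lower means fewer viable cells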
Details: second compound 0.1 µM; first compound 0.01 µM; stronger effect = lower value
From the text: Multicellular complex tumor spheroid response to RAS pathway inhibitors in combination with a targeted agents in patient-derived cell lines with oncogenic KRAS variants from multiple cancer types A high-throughput screen of multi-cell type tumor spheroids was designed to identify active combinations of targeted small molecules and KRAS pathway inhibitors. […] Compounds. […] If the clinical Cmax for an agent had not been determined, the highest concentration tested was 10 microM. […]

[
  {
    "COMPOUND": "CC(C)n1nc(-c2ccc3oc(N)nc3c2)c2c(N)ncnc21 + C=CC(=O)N1CCN(c2nc(OCC3CCCN3C)nc3c2CCN(c2cccc4cccc(C)c24)C3)CC1CC#N",
    "TARGET_ENTITY": "KRAS-mutant PDC tumor spheroid with HUVEC/MSC, viability",
    "viability, T/C [%]": 17.2
  },
  {
    "COMPOUND": "CCN1CCN(Cc2ccc(Nc3ncc(F)c(-c4cc(F)c5nc(C)n(C(C)C)c5c4)n3)nc2)CC1 + CC1OCC2(CCN(c3cnc(Sc4ccnc(N)c4Cl)c(N)n3)CC2)C1N",
    "TARGET_ENTITY": "KRAS-mutant PDC tumor spheroid with HUVEC/MSC, viability",
    "viability, T/C [%]": 49
  },
  {
    "COMPOUND": "CC(C)n1nc(-c2ccc3oc(N)nc3c2)c2c(N)ncnc21 + CNCc1ccccc1-c1csc(C(C)Nc2nc(C)nc3cc(OC)c(OC)cc23)c1",
    "TARGET_ENTITY": "KRAS-mutant PDC tumor spheroid with HUVEC/MSC, viability",
    "viability, T/C [%]": 33.4
  },
  {
    "COMPOUND": "CC(=O)OC12COC1CC(O)C1(C)C(=O)C(O)C3=C(C)C(OC(=O)C(O)C(NC(=O)OC(C)(C)C)c4ccccc4)CC(O)(C(OC(=O)c4ccccc4)C21)C3(C)C (stereo not given) + CC1OCC2(CCN(c3cnc(Sc4ccnc(N)c4Cl)c(N)n3)CC2)C1N",
    "TARGET_ENTITY": "KRAS-mutant PDC tumor spheroid with HUVEC/MSC, viability",
    "viability, T/C [%]": 7.15
  },
  {
    "COMPOUND": "CCN1CCN(Cc2ccc(Nc3ncc(F)c(-c4cc(F)c5nc(C)n(C(C)C)c5c4)n3)nc2)CC1 + COc1cc2nc(C)nc(NC(C)c3cc(N)cc(C(F)(F)F)c3)c2cc1OC1CCOC1",
    "TARGET_ENTITY": "KRAS-mutant PDC tumor spheroid with HUVEC/MSC, viability",
    "viability, T/C [%]": 52.8
  }
]

---

Test system: KRAS-mutant PDC tumor spheroid with HUVEC/MSC, viability
Assay: Anticancer human tumor 327498-153-R-J2-PDC cell line growth inhibition [KRAS2];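 note: spheroids exposed to agents for seven days before reading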;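 for viability, T/C: 100% = DMSO vehicle wells so lower means fewer viable cells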
Settings: second compound 0.316 µM; first compound 0.1 µM; stronger effect = lower value
Lab note: cut-off is 40%. Strictly less in viability, T/C is met. Exactly 40% or more is not met.

[
  {
    "MOLECULE": "CCN1CCN(Cc2ccc(Nc3ncc(F)c(-c4cc(F)c5nc(C)n(C(C)C)c5c4)n3)nc2)CC1 + COc1cc2nc(C)nc(NC(C)c3cc(N)cc(C(F)(F)F)c3)c2cc1OC1CCOC1",
    "TARGET_ENTITY": "KRAS-mutant PDC tumor spheroid with HUVEC/MSC, viability",
    "GROUP_LABEL": "met"
  },
  {
    "MOLECULE": "CC1COCCN1c1cc(-c2ccnn2C)c2ccnc(-c3ccn[nH]3)c2n1 (stereo unspecified) + C=CC(=O)N1CCN(c2nc(OCC3CCCN3C)nc3c2CCN(c2cccc4cccc(C)c24)C3)CC1CC#N",
    "TARGET_ENTITY": "KRAS-mutant PDC tumor spheroid with HUVEC/MSC, viability",
    "GROUP_LABEL": "met"
  },
  {
    "MOLECULE": "Cn1ncnc1[C@H]1c2n[nH]c(=O)c3cc(F)cc(c23)N[C@@H]1c1ccc(F)cc1 + C=CC(=O)N1CCN(c2nc(OCC3CCCN3C)nc3c2CCN(c2cccc4cccc(C)c24)C3)CC1CC#N",
    "TARGET_ENTITY": "KRAS-mutant PDC tumor spheroid with HUVEC/MSC, viability",
    "GROUP_LABEL": "met"
  },
  {
    "MOLECULE": "COC(=O)c1ccc2c(C(=Nc3ccc(N(C)C(=O)CN4CCN(C)CC4)cc3)c3ccccc3)c(O)[nH]c2c1 + C=CC(=O)N1CCN(c2nc(=O)n(-c3c(C)ccnc3C(C)C)c3nc(-c4c(O)cccc4F)c(F)cc23)C(C)C1",
    "TARGET_ENTITY": "KRAS-mutant PDC tumor spheroid with HUVEC/MSC, viability",
    "GROUP_LABEL": "not met"
  },
  {
    "MOLECULE": "COc1cc2nccc(Oc3ccc(NC(=O)C4(C(=O)Nc5ccc(F)cc5)CC4)cc3)c2cc1OC + COc1cc2nc(C)nc(NC(C)c3cc(N)cc(C(F)(F)F)c3)c2cc1OC1CCOC1",
    "TARGET_ENTITY": "KRAS-mutant PDC tumor spheroid with HUVEC/MSC, viability",
    "GROUP_LABEL": "not met"
  },
  {
    "MOLECULE": "Cn1ncnc1[C@H]1c2n[nH]c(=O)c3cc(F)cc(c23)N[C@@H]1c1ccc(F)cc1 + CNCc1ccccc1-c1csc(C(C)Nc2nc(C)nc3cc(OC)c(OC)cc23)c1",
    "TARGET_ENTITY": "KRAS-mutant PDC tumor spheroid with HUVEC/MSC, viability",
    "GROUP_LABEL": "met"
  },
  {
    "MOLECULE": "COc1cc2nccc(Oc3ccc(NC(=O)C4(C(=O)Nc5ccc(F)cc5)CC4)cc3)c2cc1OC + CC1OCC2(CCN(c3cnc(Sc4ccnc(N)c4Cl)c(N)n3)CC2)C1N",
    "TARGET_ENTITY": "KRAS-mutant PDC tumor spheroid with HUVEC/MSC, viability",
    "GROUP_LABEL": "not met"
  },
  {
    "MOLECULE": "CC(=O)OC12COC1CC(O)C1(C)C(=O)C(O)C3=C(C)C(OC(=O)C(O)C(NC(=O)OC(C)(C)C)c4ccccc4)CC(O)(C(OC(=O)c4ccccc4)C21)C3(C)C (stereo unspecified) + CNCc1ccccc1-c1csc(C(C)Nc2nc(C)nc3cc(OC)c(OC)cc23)c1",
    "TARGET_ENTITY": "KRAS-mutant PDC tumor spheroid with HUVEC/MSC, viability",
    "GROUP_LABEL": "met"
  },
  {
    "MOLECULE": "Cn1nccc1Nc1nccc(-c2cc3c(s2)C(C)(C)N(CCN2CCOCC2)C3=O)n1 + C=CC(=O)N1CCN(c2nc(=O)n(-c3c(C)ccnc3C(C)C)c3nc(-c4c(O)cccc4F)c(F)cc23)C(C)C1",
    "TARGET_ENTITY": "KRAS-mutant PDC tumor spheroid with HUVEC/MSC, viability",
    "GROUP_LABEL": "not met"
  },
  {
    "MOLECULE": "CN(C)C/C=C/C(=O)Nc1cc2c(Nc3ccc(F)c(Cl)c3)ncnc2cc1O[C@H]1CCOC1 + C=CC(=O)N1CCN(c2nc(OCC3CCCN3C)nc3c2CCN(c2cccc4cccc(C)c24)C3)CC1CC#N",
    "TARGET_ENTITY": "KRAS-mutant PDC tumor spheroid with HUVEC/MSC, viability",
    "GROUP_LABEL": "not met"
  },
  {
    "MOLECULE": "CC1COCCN1c1cc(-c2ccnn2C)c2ccnc(-c3ccn[nH]3)c2n1 (stereo unspecified) + CNCc1ccccc1-c1csc(C(C)Nc2nc(C)nc3cc(OC)c(OC)cc23)c1",
    "TARGET_ENTITY": "KRAS-mutant PDC tumor spheroid with HUVEC/MSC, viability",
    "GROUP_LABEL": "met"
  }
]
